This listing pairs compounds with measured relative viability.
System: LC-2-ad
EXPERIMENTAL DETAILS: relative viability (nuclei count vs DMSO), 5 days (fraction); higher = more cells survive
MEASUREMENT CONTEXT: first compound 0.03162 µM
The answer should be written as a number, with no unit following it.

[
  {
    "COMPOUND": "NC(=O)Nc1cc(-c2cccc(F)c2)sc1C(=O)N[C@H]1CCCNC1 [AZD7762] + Cc1nc(NC(=O)N2CCC[C@H]2C(N)=O)sc1-c1ccnc(C(C)(C)C(F)(F)F)c1 [Alpelisib] (partner 2 µM)",
    "SYSTEM TESTED": "LC-2-ad",
    "QUANTITATIVE READOUT": 0.897
  },
  {
    "COMPOUND": "NC(=O)Nc1cc(-c2cccc(F)c2)sc1C(=O)N[C@H]1CCCNC1 [AZD7762] + COc1cccc2cc(-c3nc([C@H]4CC[C@H](C(=O)O)CC4)n4ncnc(N)c34)[nH]c12 [OSI-027] (partner 0.5 µM)",
    "SYSTEM TESTED": "LC-2-ad",
    "QUANTITATIVE READOUT": 1
  },
  {
    "COMPOUND": "NC(=O)Nc1cc(-c2cccc(F)c2)sc1C(=O)N[C@H]1CCCNC1 [AZD7762] + Nc1nc2[nH]cc(CCc3ccc(C(=O)N[C@@H](CCC(=O)O)C(=O)O)cc3)c2c(=O)[nH]1 [Pemetrexed] (partner 0.2 µM)",
    "SYSTEM TESTED": "LC-2-ad",
    "QUANTITATIVE READOUT": 0.277
  }
]

Find relative viability (LC-2-ad) for the entry NC(=O)Nc1cc(-c2cccc(F)c2)sc1C(=O)N[C@H]1CCCNC1 [AZD7762] + C[C@]1(O)C[C@@H](c2nc(-c3ccc4ccc(-c5ccccc5)nc4c3)c3c(N)nccn32)C1 [Linsitinib] (partner 1 µM)
0.929

These data points were gathered from the supplement of paper PMC10307832.
